- Tested on: 521955-158-R2-J5-PDC complex spheroids, viability;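 also: spheroids also contain HUVEC endothelial cells and mesenchymal stem cells as stroma; compound exposure lasted seven days before the viability read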
- assay remarks: Anticancer human tumor 521955-158-R2-J5-PDC patient-derived pancreatic carcinoma cell line growth inhibition [RAS]; active = viability on the fitted dose curve at most 10% of control; inactive = the rest
- applied conditions: second compound 0.0949 µM; first compound 0.316 µM
- Description: RAS pathway inhibitors in Combinations in Complex Spheroids A high-throughput screen of multi-cell type tumor spheroids was designed to identify active combinations of RAS pathway inhibitors and targeted small molecules. Complex spheroids include a stromal component modeled by human endothelial cells (HUVEC) and fibroblasts modeled by human mesenchymal stem cells (MSCs). […] Compounds. […] If the clinical Cmax for an agent had not been determined, the highest concentration tested was 10 microM. […]
Possible outcomes: true (1) for active, false (0) for inactive

molecule | label value
Nc1ccn(C2OC(CO)C(O)C2(F)F)c(=O)n1 (centres undefined) + CCn1c(-c2cc(N3CCN(C)CC3)cnc2C(C)OC)c2c3cc(ccc31)-c1csc(n1)CC(NC(=O)C1CC1C)C(=O)N1CCCC(N1)C(=O)OCC(C)(C)C2 | false (0)
CC(C)NCC(C(=O)N1CCN(c2ncnc3c2C(C)CC3O)CC1)c1ccc(Cl)cc1 (centres undefined) + CCn1c(-c2cc(N3CCN(C)CC3)cnc2C(C)OC)c2c3cc(ccc31)-c1csc(n1)CC(NC(=O)C1CC1C)C(=O)N1CCCC(N1)C(=O)OCC(C)(C)C2 | true (1)
Cc1nc(N2CCC3(CC2)COC(C)C3N)c(CO)nc1Sc1ccnc(N)c1Cl (centres undefined) + CCn1c(-c2cc(N3CCN(C)CC3)cnc2C(C)OC)c2c3cc(ccc31)-c1csc(n1)CC(NC(=O)C1CC1C)C(=O)N1CCCC(N1)C(=O)OCC(C)(C)C2 | false (0)
CCC(CC)c1cc(NC2CCC(N)C2)n2nccc2n1 (centres undefined) + CCn1c(-c2cc(N3CCN(C)CC3)cnc2C(C)OC)c2c3cc(ccc31)-c1csc(n1)CC(NC(=O)C1CC1C)C(=O)N1CCCC(N1)C(=O)OCC(C)(C)C2 | false (0)
